ASSAYED_TARGET: Gal(b1-3)GlcNAc
ASSAY_NOTES: glycan array binding signal (z-score within array); higher = stronger binding
RECORDED_CONDITIONS: glycan notation: IUPAC condensed, linker removed
Many of the other results were omitted from the sample, so the strongest signals are more common in it than they were.
ENDPOINT_LABEL: glycan array binding signal (z-score)
# respond with the number and nothing more

INPUT: Consider the binder Surfactant Protein D (Human); Neck + Carbohydrate Recognition Domain (NCRD) (Homo sapiens) (protein) MLLFLLSALVLLTQPLGYLEAEMKTYSHRTMPSACTLVMCSSVESGLPGRDRDGREGPRGEKGDPGLPGAAGQAGMPGQAGPVGPKGDNGSVGEPGPKGDTGPSGPPGPPGVPGPAGREGALGKQGNIGPQGKPGPKGEAGPKGEVGAPGMQGSAGARGLAGPKGERGVPGERGVPGNTGAAGSAGAMGPQGSPGARGPPGLKGDKGIPGDKGAKGESGLPDVASLRQQVEALQGQVQHLQAAFSQYKKVELFPNGQSVGEKIFKTAQFVKPFTEAQLLCTQAGGQLASPRSAAENAALQQLVVAKNEAAFLSMTDSKTEGKFTYPTGESLVYSNWAPGEPNDDGGSEDCVEIFTNGKWNDRACGEKRLVVCEF and give its measured glycan array binding signal (z-score).
OUTPUT: -0.263

These data points were gathered from the supplement of paper PMC8728848.
